Target: Mu-type opioid receptor (Rattus norvegicus) (UniProt P33535)
Sequence (P33535 whole entry): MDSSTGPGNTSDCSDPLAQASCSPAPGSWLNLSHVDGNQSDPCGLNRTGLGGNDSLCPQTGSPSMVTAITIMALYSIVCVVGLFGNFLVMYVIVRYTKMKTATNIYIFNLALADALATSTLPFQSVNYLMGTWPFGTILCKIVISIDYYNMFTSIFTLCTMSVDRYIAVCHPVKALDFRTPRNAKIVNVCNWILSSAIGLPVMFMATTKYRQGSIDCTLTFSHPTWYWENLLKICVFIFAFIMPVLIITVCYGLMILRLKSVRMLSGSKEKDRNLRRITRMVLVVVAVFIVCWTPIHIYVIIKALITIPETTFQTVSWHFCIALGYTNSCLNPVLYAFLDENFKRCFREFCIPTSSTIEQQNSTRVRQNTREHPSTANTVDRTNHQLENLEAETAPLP
Test: Activity at rat mu opioid receptor expressed in CHO cells by [35S]GTPgammaS binding assay
Assay type: functional, cell-based

{"columns": ["compound-structure-string", "unit-of-measurement", "Emax"],
 "data": [
  ["CCCC[C@@H](NC(=O)[C@H](Cc1cc2ccccc2[nH]1)NC(=O)OC(C)(C)C)C(=O)N[C@H](CC(=O)O)C(=O)N[C@H](Cc1ccccc1)C(=O)NNC(=O)[C@H](Cc1ccccc1)NC(=O)CNC(=O)[C@@H](C)NC(=O)[C@@H](N)Cc1ccc(O)cc1", "%", 106],
  ["CCCC[C@H](NC(=O)[C@H](N)Cc1cc2ccccc2[nH]1)C(=O)N[C@@H](CC(=O)O)C(=O)N[C@@H](Cc1ccccc1)C(=O)NNC(=O)[C@H](Cc1ccccc1)NC(=O)CNC(=O)[C@@H](C)NC(=O)[C@@H](N)Cc1ccc(O)cc1", "%", 82],
  ["CCCC[C@H](NC(=O)[C@@H](Cc1cc2ccccc2[nH]1)NC(=O)OC(C)(C)C)C(=O)N[C@@H](CC(=O)O)C(=O)N[C@@H](Cc1ccccc1)C(=O)NNC(=O)[C@H](Cc1ccccc1)NC(=O)CNC(=O)[C@@H](C)NC(=O)[C@@H](N)Cc1ccc(O)cc1", "%", 170],
  ["CCCC[C@@H](NC(=O)[C@@H](CC(=O)O)NC(=O)[C@@H](Cc1ccccc1)NC(=O)OC(C)(C)C)C(=O)N[C@@H](Cc1cc2ccccc2[nH]1)C(=O)NNC(=O)[C@H](Cc1ccccc1)NC(=O)CNC(=O)[C@@H](C)NC(=O)[C@@H](N)Cc1ccc(O)cc1", "%", 71]
]}
